# SYSTEM: Paired box protein Pax-8 (Homo sapiens, UniProt Q06710)
# Sequence (Q06710 whole entry): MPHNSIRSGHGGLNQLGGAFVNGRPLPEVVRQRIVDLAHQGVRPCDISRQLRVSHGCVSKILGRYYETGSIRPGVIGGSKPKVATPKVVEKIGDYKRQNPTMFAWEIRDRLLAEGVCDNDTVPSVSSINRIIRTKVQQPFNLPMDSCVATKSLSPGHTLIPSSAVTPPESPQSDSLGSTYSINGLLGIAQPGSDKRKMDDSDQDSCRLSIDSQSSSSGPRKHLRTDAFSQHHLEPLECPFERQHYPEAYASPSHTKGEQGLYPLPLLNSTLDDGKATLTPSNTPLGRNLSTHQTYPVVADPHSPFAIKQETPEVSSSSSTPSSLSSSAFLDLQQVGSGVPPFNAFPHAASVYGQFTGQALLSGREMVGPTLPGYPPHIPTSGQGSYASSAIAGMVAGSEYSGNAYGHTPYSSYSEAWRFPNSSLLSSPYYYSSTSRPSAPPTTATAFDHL
# EXPERIMENT DESCRIPTION: inhibitors of PAX8-driven TPO luciferase reporter, dose response, RMG-I cells, cherry-pick (AID 687027);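 also: luciferase reporter driven by Pax8 target thyroperoxidase promoter measured by SteadyGlo luminescence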
# Format: functional, cell-based
Calls of active or inactive are those of the source.
Task for the reader: assign each of the following compounds its reported AC50.

Below, 2 compounds whose answers are already recorded.
In [3]: df
Out[3]:
                  compound_structure_string  readout_label       measurement
0  COc1ccc(CN(C)C[C@@H]2OCCCC[C@H](C)Oc3ccc(NC(=O)Nc4cccc5ccccc45)cc3C(=O)N([C@H](C)CO)C[C@H]2C)cc1           AC50  69.6 µM (active)
1  C[C@H](CO)N1C[C@H](C)[C@@H](CN(C)Cc2ccc(C(F)(F)F)cc2)OCCCC[C@H](C)Oc2ccc(NS(=O)(=O)c3ccc(Cl)cc3)cc2C1=O           AC50  7.37 µM (active)

Next compound, AC50 to be filled in.
Input: Name the reported AC50 value associated with the compound `C[C@@H]1CCCCO[C@H](CN(C)Cc2ccc(C(F)(F)F)cc2)[C@H](C)CN([C@H](C)CO)C(=O)c2cc(NC(=O)c3ccccc3)ccc2O1`
Output: 10.1 µM (active)

====

# SYSTEM: Luciferin 4-monooxygenase (Photinus pyralis)
# Sequence (P08659 whole entry): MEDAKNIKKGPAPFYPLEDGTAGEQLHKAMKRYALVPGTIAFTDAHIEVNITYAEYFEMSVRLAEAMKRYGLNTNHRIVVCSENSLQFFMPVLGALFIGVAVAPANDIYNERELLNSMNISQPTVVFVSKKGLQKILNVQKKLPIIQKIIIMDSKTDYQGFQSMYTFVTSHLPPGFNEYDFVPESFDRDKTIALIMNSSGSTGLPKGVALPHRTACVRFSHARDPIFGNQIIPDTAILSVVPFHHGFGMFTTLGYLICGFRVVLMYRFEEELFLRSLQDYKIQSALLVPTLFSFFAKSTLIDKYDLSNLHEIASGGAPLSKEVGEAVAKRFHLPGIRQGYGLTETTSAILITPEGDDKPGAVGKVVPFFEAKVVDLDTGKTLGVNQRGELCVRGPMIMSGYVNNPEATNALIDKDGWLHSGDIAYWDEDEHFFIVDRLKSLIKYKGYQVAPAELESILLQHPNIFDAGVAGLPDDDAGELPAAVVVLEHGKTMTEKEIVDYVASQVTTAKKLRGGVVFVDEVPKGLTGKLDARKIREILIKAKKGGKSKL
# EXPERIMENT DESCRIPTION: Counter Screen for Luciferase-based Assay Positives. [Related pubchem assays: 620, 618, 411 ]
The source made the active and inactive calls.
Task for the reader: assign each of the following compounds its reported EC50.

Below, 3 compounds whose answers are already recorded.
In [3]: df
Out[3]:
                 compound_structure_string  readout_label            measurement
0                Cc1ccnc(Nc2nc3ccccc3o2)n1           EC50       3.04 µM (active)
1  CC(=O)Nc1ccc2oc(-c3cc(F)c(F)cc3Cl)nc2c1           EC50       16.2 µM (active)
2            COc1cccc(-c2nc3cc(C)ccc3o2)c1           EC50  > 100 µM (not active)

Next compound, EC50 to be filled in.
Input: Name the reported EC50 value associated with the compound `CCn1c(SCC(=O)Nc2ccccc2C)nnc1-c1ccccc1O`
Output: > 100 µM (not active)

====

# SYSTEM: Polyadenylate-binding protein 1 (Homo sapiens)
# Sequence (P11940 whole entry): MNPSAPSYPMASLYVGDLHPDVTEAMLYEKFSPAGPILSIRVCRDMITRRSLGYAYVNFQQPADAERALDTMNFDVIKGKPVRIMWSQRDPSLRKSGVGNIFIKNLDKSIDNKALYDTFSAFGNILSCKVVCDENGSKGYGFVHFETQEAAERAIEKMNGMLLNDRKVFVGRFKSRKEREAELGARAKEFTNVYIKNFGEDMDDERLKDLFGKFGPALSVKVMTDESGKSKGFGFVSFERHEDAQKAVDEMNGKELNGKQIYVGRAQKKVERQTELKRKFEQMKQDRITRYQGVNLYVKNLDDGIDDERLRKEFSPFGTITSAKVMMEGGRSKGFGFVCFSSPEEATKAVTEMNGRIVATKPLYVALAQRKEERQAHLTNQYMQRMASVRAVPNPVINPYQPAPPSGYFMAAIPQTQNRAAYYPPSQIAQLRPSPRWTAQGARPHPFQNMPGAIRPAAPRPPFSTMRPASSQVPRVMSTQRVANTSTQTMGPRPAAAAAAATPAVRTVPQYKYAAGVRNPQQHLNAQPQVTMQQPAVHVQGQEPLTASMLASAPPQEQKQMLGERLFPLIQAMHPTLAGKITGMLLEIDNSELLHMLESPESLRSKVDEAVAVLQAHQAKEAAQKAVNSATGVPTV
# EXPERIMENT DESCRIPTION: PABP poly(A) RNA binding inhibitors, primary screen, biochemical, fluorescence polarization, uHTS (AID 2014)
Activity calls are given as the source filed them.
Task for the reader: assign each of the following molecules its reported IC50.

Please state, for each entry, its recorded IC50.
1. CCN1C(=NCC(C)C)N[C@@H](c2cccc(F)c2)C(C(=O)OC)=C1C
2. CCN1C(NCCOC)=N[C@@H](CCc2ccccc2)[C@H](C(=O)OC)[C@H]1C
3. CCOc1ccccc1/N=C1/SCCCN1C
4. NC(=S)n1[nH]c(-c2ccc([N+](=O)[O-])cc2)c(/N=N/c2cccc([N+](=O)[O-])c2)c1=O

Output:
1: 5.33 µM (active); 2: 8.16 µM (active); 3: 4.4 µM (active); 4: 42.5 µM (active)

====

# EXPERIMENT DESCRIPTION: cells
# Assay type: functional
Active and inactive are the calls of the source.
Task for the reader: assign each of the following compounds its reported IC50.

Below, 4 compounds whose answers are already recorded.
                  compound_structure_string       measurement
0             OCC#CCSc1nnc(-c2ccc(Br)cc2)o1   5.2 µM (active)
1  COC(=O)COc1ccc2c(=O)c(-c3ccccc3OC)coc2c1   5.9 µM (active)
2  CCOC(=O)Cc1c(C)nc2c(-c3ccc(Cl)cc3)cnn2c1O  6.28 µM (active)
3  Cc1cc(S(=O)(=O)c2ccc([N+](=O)[O-])cn2)ccc1Br  0.68 µM (active)

Input: Name the reported IC50 value associated with the compound `Cc1ccccc1-c1cc2c(nn1)-c1ccccc1C2=O`
Output: 14.7 µM (active)

====

Task for the reader: assign each of the following molecules its reported IC50.
# SYSTEM: DNA dC->dU-editing enzyme APOBEC-3A (Homo sapiens)
# Sequence (P31941 whole entry): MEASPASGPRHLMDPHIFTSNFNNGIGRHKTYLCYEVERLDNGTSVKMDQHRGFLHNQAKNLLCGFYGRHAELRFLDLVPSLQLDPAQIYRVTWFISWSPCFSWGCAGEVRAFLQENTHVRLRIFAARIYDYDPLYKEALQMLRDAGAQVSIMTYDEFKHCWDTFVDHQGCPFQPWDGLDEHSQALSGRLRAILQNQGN
# EXPERIMENT DESCRIPTION: Dose Response confirmation of small molecule APOBEC3A DNA Deaminase Inhibitors via a fluorescence-based single-stranded DNA deaminase assay. [Related pubchem assays (depositor defined):AID493011, AID493024]
# Type: functional
Activity calls are given as the source filed them.

Below, 3 molecules whose answers are already recorded.
>>> print(df.to_string())
                                   molecule                                    system  readout_label       measurement
0                     O=C1N=C(S)SC1=C1CCCC1  DNA dC->dU-editing enzyme APOBEC-3A (Homo sapiens)           IC50  5.61 µM (active)
1  C[N+]1(C)C2CCC1CC(OC(=O)c1ccccc1)C2 (centres undefined)  DNA dC->dU-editing enzyme APOBEC-3A (Homo sapiens)           IC50  2.96 µM (active)
2  COC(=O)C1=C(C)N(Cc2ccccc2)C(NCCCOC(C)C)=N[C@H]1c1ccccc1  DNA dC->dU-editing enzyme APOBEC-3A (Homo sapiens)           IC50  3.37 µM (active)

Next molecule, IC50 to be filled in.
Input: Name the reported IC50 value associated with the molecule `CCN1C(NCCOC)=N[C@@H](CCc2ccccc2)[C@H](C(=O)OC)[C@H]1C`
Output: 3.39 µM (active)

====

# SYSTEM: ATP-dependent molecular chaperone HSP82 (Candida albicans (strain WO-1) (Yeast), UniProt C4YTQ8)
# Sequence (C4YTQ8 whole entry): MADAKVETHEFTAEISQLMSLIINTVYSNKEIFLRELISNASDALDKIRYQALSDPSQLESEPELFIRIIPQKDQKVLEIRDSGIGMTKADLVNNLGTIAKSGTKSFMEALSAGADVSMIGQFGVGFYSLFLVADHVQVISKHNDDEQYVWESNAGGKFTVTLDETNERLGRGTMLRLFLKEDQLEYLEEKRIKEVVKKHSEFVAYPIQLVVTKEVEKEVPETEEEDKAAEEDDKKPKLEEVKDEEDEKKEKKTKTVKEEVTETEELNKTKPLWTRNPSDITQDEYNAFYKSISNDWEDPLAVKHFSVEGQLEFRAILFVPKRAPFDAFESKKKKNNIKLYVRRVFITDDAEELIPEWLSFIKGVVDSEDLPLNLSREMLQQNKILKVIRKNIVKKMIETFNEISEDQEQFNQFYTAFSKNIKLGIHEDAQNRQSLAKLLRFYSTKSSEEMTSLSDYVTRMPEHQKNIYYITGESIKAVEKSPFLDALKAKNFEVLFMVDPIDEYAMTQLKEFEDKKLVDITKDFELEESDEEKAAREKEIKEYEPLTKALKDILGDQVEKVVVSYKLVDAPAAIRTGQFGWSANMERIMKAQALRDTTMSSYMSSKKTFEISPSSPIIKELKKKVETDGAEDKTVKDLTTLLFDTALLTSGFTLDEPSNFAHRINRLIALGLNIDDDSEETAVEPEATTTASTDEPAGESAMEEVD
# EXPERIMENT DESCRIPTION: loss of DOC-induced GRE-beta-galactosidase reporter signal, dose response, Hsp90 inhibitor project, S. cerevisiae, luminescence (AID 2400);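 also: beta-galactosidase luminescence from glucocorticoid response element reporter as proxy for Hsp90 function; inhibitor potency where signal loss means Hsp90 inhibition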
# Format: functional, cell-based
Calls of active or inactive are those of the source.
Thanks in advance; please answer with one of these: label 1 (active), label 0 (inactive)

                                   compound  label_class
0   O=C(c1cc2ccccc2cc1O)N1CCN(c2ccccc2O)CC1      label 0
1  Cc1ccc2[nH]c(/C(C#N)=C\c3ccc(OC(=O)c4cccs4)cc3)nc2c1      label 1
2  COc1ccc(-n2nc(C(=O)NCC(=O)N3CCN(c4ccc(F)cc4)CC3)c3ccccc3c2=O)c(OC)c1      label 0
3  CCN(CC)S(=O)(=O)c1ccc(N/N=C/c2ccc(O)cc2O)nc1      label 0
4      O=C(Nc1nnc(SCc2ccc(F)cc2)s1)c1ccccn1      label 1

Next:
Input: Outcome? CC(C)CC(=O)NC(c1cccs1)c1ccc2cccnc2c1O (stereo unspecified)
Output: label 0

====

# Test system: Streptococcus sp. 'group A'
# EXPERIMENT DESCRIPTION: growth inhibition of control SK(-) GAS strain, dose response, counter-screen for streptokinase expression inhibitor project, luminescence, kanamycin, BacTiterGlo, confirmation (AID 1900)
# Assay type: functional, organism-based
Calls of active or inactive are those of the source.
READOUT LABEL: EC50

Below, 2 compounds whose answers are already recorded.
In [3]: df
Out[3]:
                  compound_structure_string       measurement
0  O=c1c2c(n3nnnc3n1Cc1ccccc1)-c1ccccc1CC21CCCC1  26.3 µM (active)
1  COc1ccc(-c2cc(C3CCN(c4ccc(C(C)=O)cc4[N+](=O)[O-])CC3)[nH]n2)cc1  2.74 µM (active)

Please state, for each entry, its recorded EC50.
1. Cc1cccc(CSC2=NCCN2S(=O)(=O)c2ccc(F)cc2)c1
2. Cc1ccccc1N1CCN(S(=O)(=O)c2nnc(NC(=O)c3ccco3)s2)CC1
3. Cc1ccc(C(=O)Nc2nc(-c3ccccc3)c(-c3ccccc3)o2)cc1

Output:
1: 41.8 µM (active); 2: 11 µM (active); 3: 1.27 µM (active)

Please state, for each entry, its recorded EC50.
1. O=C(COc1ccccc1)Nc1nnc(-c2ccccc2Cl)o1
2. Cc1cccc(NCC(=O)N/N=C\c2cccc(Oc3ccccc3)c2)c1
3. COCCNC(=O)c1c(NC(=O)c2ccc(Br)o2)n(Cc2ccccc2)c2nc3ccccc3nc12

Output:
> 150 µM (not active)
> 150 µM (not active)
1.9 µM (active)

====

# EXPERIMENT DESCRIPTION: inhibitors of firefly luciferase expression or activity, dose response, H4 neuroglioma cells, luminescence (AID 1990)
# Format: functional, cell-based
The source made the active and inactive calls.
Task for the reader: assign each of the following compounds its reported EC50.

Below, 6 compounds whose answers are already recorded.
                                   compound  readout_label              measurement
0  Cc1ccc2nc(NC(=O)[C@H](C)N3C(=O)C4CC=CCC4C3=O)sc2c1 (some centres not stated)           EC50  0.556 µM (inconclusive)
1  Cc1ccc(/N=C2\C(Cl)=C(O)OC2OC(C)C)c(C)c1 (configuration not stated)           EC50    > 120 µM (not active)
2           CCOc1ccc(-c2noc(CCC(=O)O)n2)cc1           EC50         6.28 µM (active)
3  CC1=CC2/C=C(\C)CCC(O)C(O)/C=C/C(=O)C23C(=O)NC(CC(C)C)C3C1C (configuration not stated)           EC50    > 120 µM (not active)
4  O=C(CCN1CCN(c2ccccc2F)CC1)Nc1ccc2c(c1)OCO2           EC50    > 120 µM (not active)
5  COc1ccc(C(=O)[C@H]2[C@H]3C(=O)N(c4ccccc4)C(=O)[C@H]3C3C=CC=NN32)cc1 (some centres not stated)           EC50    > 120 µM (not active)

Next compound, EC50 to be filled in.
Input: Name the reported EC50 value associated with the compound `COc1ccc(CCNS(=O)(=O)c2cn(C)cn2)cc1OC`
Output: > 120 µM (not active)
